Data origin: ChEMBL document CHEMBL3351936

Test system: MCF7
testSummary: Antiproliferative activity against human MCF7 cells assessed as cell-growth inhibition after 48 hrs by MTT assay
Assay type: functional, cell-based
experimentalConditions: MCF7, 48 h
assayReadout: pIC50
Numbers only, as −log10 of the molar value.

Consider the reported pIC50 for these compounds:
{"compoundStructureString": "C=C(CCCC(C)(C)O)[C@H]1CC[C@]2(C)[C@@H]1[C@H](OC(=O)CCl)C[C@@H]1[C@@]3(C)CC[C@H](O)C(C)(C)[C@@H]3CC[C@]12C", "system": "MCF7", "pIC50": 5.01}
{"compoundStructureString": "C=C(CCCC(C)(C)O)[C@H]1CC[C@]2(C)[C@@H]1[C@H](O)C[C@@H]1[C@@]3(C)CC[C@H](OC(=O)CCl)C(C)(C)[C@@H]3CC[C@]12C", "system": "MCF7", "pIC50": 4.72}

Below is a list of compounds. For each, state its recorded pIC50.
1. CC(C)(O)CCC[C@@](C)(O)[C@H]1CC[C@]2(C)[C@@H]1[C@H](O)C[C@@H]1[C@@]3(C)CC[C@H](OC(=O)CCl)C(C)(C)[C@@H]3CC[C@]12C
2. CC(=O)O[C@H]1CC[C@]2(C)[C@H]3C[C@@H](O)[C@@H]4[C@@H]([C@](C)(O)CCCC(C)(C)O)CC[C@@]4(C)[C@]3(C)CC[C@H]2C1(C)C
3. CC(=O)O[C@@H]1C[C@@H]2[C@@]3(C)CC[C@H](O)C(C)(C)[C@@H]3CC[C@@]2(C)[C@]2(C)CC[C@H]([C@](C)(O)CCCC(C)(C)O)[C@@H]12

**A:**
1. 4.07
2. 4.71
3. 4.81

* * *

Hi there, I'd appreciate the recorded pIC50 for every entry that follows.
testSummary: Antiproliferative activity against human U87 cells assessed as cell-growth inhibition after 48 hrs by MTT assay
Assay type: functional, cell-based, U-87MG ATCC
experimentalConditions: U-87 MG
Give bare numbers, as −log10 of the molar value.

{"compoundStructureString": "C=C(CCCC(C)(C)O)[C@H]1CC[C@]2(C)[C@@H]1[C@H](O)C[C@@H]1[C@@]3(C)CC[C@H](OC(=O)CCl)C(C)(C)[C@@H]3CC[C@]12C", "pIC50": 4.85}
{"compoundStructureString": "CC(C)(O)CCC[C@@](C)(O)[C@H]1CC[C@]2(C)[C@@H]1[C@H](O)C[C@@H]1[C@@]3(C)CC[C@H](OC(=O)CCl)C(C)(C)[C@@H]3CC[C@]12C", "pIC50": 4.50}

# evaluate next
**Q:** Would you kindly share the measured pIC50 for C/C(=C/CCC(C)(C)OC(=O)CCl)[C@H]1CC[C@]2(C)[C@@H]1[C@H](O)C[C@@H]1[C@@]3(C)CC[C@H](OC(=O)CCl)C(C)(C)[C@@H]3CC[C@]12C ?
**A:** 4.67

* * *

testSummary: Antiproliferative activity against human BGC823 cells assessed as cell-growth inhibition after 48 hrs by MTT assay
Format: functional, cell-based
experimentalConditions: BGC-823, 48 h
assayReadout: pIC50
Answers are plain numbers, as −log10 of the molar value.

The following compounds have reported results that may help.
{"compound": "CC(C)(O)CCC[C@@](C)(O)[C@H]1CC[C@]2(C)[C@@H]1[C@H](OC(=O)CCl)C[C@@H]1[C@@]3(C)CC[C@H](O)C(C)(C)[C@@H]3CC[C@]12C", "resultNumber": 4.51}
{"compound": "CC(C)(CCC[C@@](C)(OC(=O)CCl)[C@H]1CC[C@]2(C)[C@@H]1[C@H](O)C[C@@H]1[C@@]3(C)CC[C@H](O)C(C)(C)[C@@H]3CC[C@]12C)OC(=O)CCl", "resultNumber": 4.49}
{"compound": "O=c1[nH]cc(F)c(=O)[nH]1 [FLUOROURACIL]", "resultNumber": 4.45}
{"compound": "CC(C)(O)CCC[C@@](C)(O)[C@H]1CC[C@]2(C)[C@@H]1[C@H](OC(=O)CCl)C[C@@H]1[C@@]3(C)CC[C@H](OC(=O)CCl)C(C)(C)[C@@H]3CC[C@]12C", "resultNumber": 4.21}

For each entry beneath this line, provide reported pIC50.
1. C/C(=C/CCC(C)(C)O)[C@H]1CC[C@]2(C)[C@@H]1[C@H](OC(=O)CCl)C[C@@H]1[C@@]3(C)CC[C@H](O)C(C)(C)[C@@H]3CC[C@]12C
2. C=C(CCCC(C)(C)OC(=O)CCl)[C@H]1CC[C@]2(C)[C@@H]1[C@H](O)C[C@@H]1[C@@]3(C)CC[C@H](O)C(C)(C)[C@@H]3CC[C@]12C
3. CC(=O)O[C@H]1CC[C@]2(C)[C@H]3C[C@@H](O)[C@@H]4[C@@H]([C@](C)(O)CCCC(C)(C)O)CC[C@@]4(C)[C@]3(C)CC[C@H]2C1(C)C
4. CC(C)(CCC[C@@](C)(O)[C@H]1CC[C@]2(C)[C@@H]1[C@H](O)C[C@@H]1[C@@]3(C)CC[C@H](OC(=O)CCl)C(C)(C)[C@@H]3CC[C@]12C)OC(=O)CCl
5. C/C(=C/CCC(C)(C)O)[C@H]1CC[C@]2(C)[C@@H]1[C@H](OC(=O)CCl)C[C@@H]1[C@@]3(C)CC[C@H](OC(=O)CCl)C(C)(C)[C@@H]3CC[C@]12C
6. CC(C)(O)CCC[C@@](C)(O)[C@H]1CC[C@]2(C)[C@@H]1[C@H](O)C[C@@H]1[C@@]3(C)CC[C@H](OC(=O)CCl)C(C)(C)[C@@H]3CC[C@]12C
7. C=C(CCCC(C)(C)O)[C@H]1CC[C@]2(C)[C@@H]1[C@H](O)C[C@@H]1[C@@]3(C)CC[C@H](OC(=O)CCl)C(C)(C)[C@@H]3CC[C@]12C
8. CC(C)(O)CCC[C@@](C)(O)[C@H]1CC[C@]2(C)[C@@H]1[C@H](O)C[C@@H]1[C@@]3(C)CC[C@H](O)C(C)(C)[C@@H]3CC[C@]12C

**A:**
1: 4.37; 2: 4.57; 3: 4.46; 4: 5.16; 5: 5.15; 6: 4.20; 7: 4.35; 8: 4.35

* * *

Would you kindly list IC50 for each of these molecules?
testSummary: Antiproliferative activity against human BGC823 cells assessed as cell-growth inhibition after 48 hrs by MTT assay
Type: functional, cell-based
experimentalConditions: BGC-823, 48 h
Give bare numbers, in µM.

Solved cases below.
{"compoundStructureString": "C=C(CCCC(C)(C)O)[C@H]1CC[C@]2(C)[C@@H]1[C@H](OC(=O)CCl)C[C@@H]1[C@@]3(C)CC[C@H](O)C(C)(C)[C@@H]3CC[C@]12C", "resultUnit": "µM", "resultNumber": 45.2}
{"compoundStructureString": "CC(=O)O[C@H]1CC[C@]2(C)[C@H]3C[C@@H](OC(C)=O)[C@@H]4[C@@H]([C@](C)(O)CCCC(C)(C)O)CC[C@@]4(C)[C@]3(C)CC[C@H]2C1(C)C", "resultUnit": "µM", "resultNumber": 42.3}
{"compoundStructureString": "CC(=O)O[C@@H]1C[C@@H]2[C@@]3(C)CC[C@H](O)C(C)(C)[C@@H]3CC[C@@]2(C)[C@]2(C)CC[C@H]([C@](C)(O)CCCC(C)(C)O)[C@@H]12", "resultUnit": "µM", "resultNumber": 28.7}
{"compoundStructureString": "C=C(CCCC(C)(C)O)[C@H]1CC[C@]2(C)[C@@H]1[C@H](OC(=O)CCl)C[C@@H]1[C@@]3(C)CC[C@H](OC(=O)CCl)C(C)(C)[C@@H]3CC[C@]12C", "resultUnit": "µM", "resultNumber": 8.3}

Could you now look at the following molecule, please?
**Q:** Any idea what its IC50 is? The molecule is C/C(=C/CCC(C)(C)OC(=O)CCl)[C@H]1CC[C@]2(C)[C@@H]1[C@H](O)C[C@@H]1[C@@]3(C)CC[C@H](OC(=O)CCl)C(C)(C)[C@@H]3CC[C@]12C
**A:** 24.2
